Listed here: items and their measured amount in liquid composition at 3 Months (chemical stability).
Assay: Chemical stability of liquid composition on storage
Assay type: physicochemical
Conditions: stored at 6° C. or 22° C.
Quantity Name: amount in liquid composition at 3 Months (chemical stability) (mg/60 mL)

{"Compound": "N[C@@H](Cc1c[nH]c2ccccc12)C(=O)O [L-Tryptophan]", "Measured Value": 426}
{"Compound": "[Na] [Sodium]", "Measured Value": 0.6}
{"Compound": "NCC(=O)O [Glycine]", "Measured Value": 3303}
{"Compound": "O=C1O[C@H]([C@@H](O)CO)C(O)=C1O [Vitamin C]", "Measured Value": 245}
{"Compound": "[Zn] [Zinc]", "Measured Value": 5.7}
